# assayed-target: Cathepsin G (Homo sapiens, UniProt P08311)
# Sequence (P08311 whole entry): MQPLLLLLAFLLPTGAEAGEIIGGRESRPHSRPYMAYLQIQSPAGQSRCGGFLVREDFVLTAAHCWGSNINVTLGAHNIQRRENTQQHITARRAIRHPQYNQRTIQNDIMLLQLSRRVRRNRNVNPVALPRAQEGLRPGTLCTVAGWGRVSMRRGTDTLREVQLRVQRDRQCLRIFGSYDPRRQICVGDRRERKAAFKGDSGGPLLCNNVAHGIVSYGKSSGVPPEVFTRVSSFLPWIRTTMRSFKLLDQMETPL
Here, each record is paired with measured IC50 data.

Task: Report the value of IC50 obtained on Cathepsin G (Homo sapiens, UniProt P08311) for `N#CSCC(=O)N1c2ccccc2CCc2ccccc21` .
Result: > 50 µM

API: the following record is the query input.
Task: Report the value of IC50 obtained on Cathepsin G (Homo sapiens, UniProt P08311) for `N#CSCC(=O)N1c2ccccc2Sc2ccc(C#N)cc21` .
Result: > 50 µM
